Cited source: the supplement of paper PMC10567573

B1: FCHO1 (parent)
chain: FSDPSQSDPETKDFWLNMAALTEA

- Variants of: B1
- protocol.summary: protein stability index of a GFP-peptide fusion (GPS, HEK-293T) (PSI 1-6); higher = more stable;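 further: lentivirally expressed fusions sorted by FACS into six bins by GFP to DsRed ratio, PSI derived from sequencing read proportions per bin multiplied by bin number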
- test.settings: c terminus: a fixed tail appended
parameter.measured: protein stability index
Give bare numbers.

Exam item: GET /values?readout=protein stability index&item= T11C
Marked response: 2.92

Respectfully, I request protein stability index for each entry included below.
1. T22H
2. A20P
3. M18K
4. T11S

Marked response:
3
2.96
2.91
2.98
